# E10 score (E10 Fab binding to peptide–H2Db complexes) per record follows
# Test system: E10 Fab
# Experiment Notes: E10 Fab surface staining of peptide-pulsed RMA-S cells (flow cytometry)
# Type: binding
# Experimental Parameters: flow cytometry surface staining of RMA-S cells pulsed with peptides
Give the value in MFI/1000 but do not write MFI/1000 after it.

ASNENLETM ... 4.1
ASNENMETM ... 11.5
ASNENMETV ... 16.8
ASNENMETL ... 11.8

response.value for SSLENFRAYV (field: E10 score (E10 Fab binding to peptide–H2Db complexes)) = 3.8

response.value for ASIENLETM (field: E10 score (E10 Fab binding to peptide–H2Db complexes)) = 1.8

response.value for ASNENMETI (field: E10 score (E10 Fab binding to peptide–H2Db complexes)) = 13.1

response.value for ASNENMETA (field: E10 score (E10 Fab binding to peptide–H2Db complexes)) = 14.2

response.value for ASNEAMETM (field: E10 score (E10 Fab binding to peptide–H2Db complexes)) = 8.2

response.value for ASIENMETM (field: E10 score (E10 Fab binding to peptide–H2Db complexes)) = 8.9

====

# Experimental System: H-2Db (Mus musculus, UniProt P01899)
# Sequence (P01899 25-362): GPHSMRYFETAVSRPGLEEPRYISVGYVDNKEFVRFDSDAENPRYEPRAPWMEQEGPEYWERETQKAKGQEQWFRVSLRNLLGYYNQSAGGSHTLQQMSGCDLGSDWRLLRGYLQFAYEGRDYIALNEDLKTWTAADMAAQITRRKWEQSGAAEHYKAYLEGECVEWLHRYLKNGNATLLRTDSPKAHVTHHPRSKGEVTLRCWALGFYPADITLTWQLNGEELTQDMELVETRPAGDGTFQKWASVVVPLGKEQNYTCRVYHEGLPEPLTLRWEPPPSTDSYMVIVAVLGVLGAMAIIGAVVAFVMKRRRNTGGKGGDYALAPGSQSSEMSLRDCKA
# Sequence (P01887 21-119 partner): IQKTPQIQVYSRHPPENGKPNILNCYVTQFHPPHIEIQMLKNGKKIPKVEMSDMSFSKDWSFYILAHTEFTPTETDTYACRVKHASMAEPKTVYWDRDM
# Experiment Notes: Brefeldin A (BFA) decay assay of pMHC complexes at the cell surface
# Assay type: cell-based
# Parameters: endogenous in cells; host or cells: RMA-S (TAP2-deficient mouse T cell line)
# Experimental Parameters: BFA decay assay; RMA-S cells kept overnight at 26°C, pulsed with 20 μM peptide 1 h at 26°C, BFA added, decay at 37°C; B22 anti-H-2Db staining, flow cytometry; exponential fit
Measurement Label: t1/2 (peptide half-life of pMHC complex) (min)
Give the value in min but do not write min after it.

Known results for sequences:
ASNENMETV ... 132
ASNENMETM ... 223
ASIENLETM ... 502
ASNENMETA ... 52

response.value for ASNENMETI (field: t1/2 (peptide half-life of pMHC complex)) = 212

====

# Experimental System: H-2Db (Mus musculus)
# Experiment Notes: Brefeldin A (BFA) decay assay of pMHC complexes at the cell surface
# Assay type: cell-based
# Set-up: endogenous in cells; host or cells: RMA-S (TAP2-deficient mouse T cell line)
# Experimental Parameters: converted from BFA decay half-life as log(2)/half-life (s)
# Off-rates per record follows
Give the value in s⁻¹ but do not write s⁻¹ after it.

Known results for sequences:
ASNENLETM ... 4.9e-05
ASNENMETA ... 0.00022
ASIENMETM ... 2.5e-05
ASNENMETM ... 5.2e-05
ASNENMETL ... 6.1e-05

response.value for ASNEAMETM (field: Off-rates) = 0.00027

response.value for SSLENFRAYV (field: Off-rates) = 2.8e-05

response.value for ASNENMETV (field: Off-rates) = 8.8e-05

response.value for ASIENLETM (field: Off-rates) = 2.3e-05

response.value for ASNENMETI (field: Off-rates) = 5.4e-05

====

# Experimental System: H-2Db (Mus musculus)
# Experiment Notes: Brefeldin A (BFA) decay assay of pMHC complexes at the cell surface
# Format: cell-based
# Set-up: endogenous in cells; host or cells: RMA-S (TAP2-deficient mouse T cell line)
# Experimental Parameters: BFA decay assay; RMA-S cells kept overnight at 26°C, pulsed with 20 μM peptide 1 h at 26°C, BFA added, decay at 37°C; B22 anti-H-2Db staining, flow cytometry; exponential fit
Mark 1 only for t1/2 (peptide half-life of pMHC complex) values smaller than 200 min; exact matches and larger values are -1.

ASNENMETL ... 1
ASNEAMETM ... 1
SSLENFRAYV ... -1
ASIENMETM ... -1

Q: Check if t1/2 (peptide half-life of pMHC complex) falls below 200 min for ASNENLETM .
A: -1
